Target: CCK receptor (brain, cerebral cortex) (Cavia porcellus, UniProt H0VZC5)
Construct: Cerebral cortex was dissected and used as a receptor source; from tissue; host or cells: guinea pig cerebral cortex membranes (male Hartley)
Experiment: biochemical
Assay type: binding, Male Hartley guinea pigs
Details: guinea pig cerebral cortex, ^125 I-CCK-33, 25° C., 2 hours; read-out: IC50 ^125 I-CCK Brain
Exercise: for every item that follows, state its recorded pIC50.
# log scale: pIC50 equals minus log10 of the concentration in mol/L

For the molecule CN1C(=O)C(C(O)c2cn(C)c3ccccc23)N=C(c2ccccc2)c2ccccc21 (racemic) [Example 50a] , report pIC50.
5.59

For the molecule O=C(CN1C(=O)C(NC(=O)OCc2ccccc2)N=C(c2ccccc2)c2ccccc21)NCc1ccccc1 (stereo not shown) , report pIC50.
6.40

For the molecule CN1C(=O)C(C(=O)c2ccsc2)N=C(c2ccccc2)c2ccccc21 (racemic) , report pIC50.
4.48

For the molecule CN1C(=O)C(C(O)c2ccccc2)N=C(c2ccccc2)c2ccccc21 (racemic) , report pIC50.
4.49

----------
Target: CCK receptor (brain, cerebral cortex) (Cavia porcellus, UniProt H0VZC5)
Construct: Cerebral cortex was dissected and used as a receptor source; from tissue; host or cells: guinea pig cerebral cortex membranes (male Hartley)
Test: biochemical
Type: binding, Male Hartley guinea pigs
Conditions: IC50 ^125 I-CCK Brain, guinea pig cerebral cortex, ^125 I-CCK-33, 25° C., 2 hours
reported_metric: pIC50
# log scale: pIC50 equals minus log10 of the concentration in mol/L

For the compound CCOC(=O)CN1C(=O)C(NC(=O)c2ccc(Cl)cc2)N=C(c2ccccc2F)c2ccccc21 (racemic) , report pIC50.
5.72

For the compound `CN1C(=O)[C@H](NC(=O)Nc2ccc(Cl)cc2)N=C(c2ccccc2)c2ccccc21` , report pIC50.
8.26

----------
Exercise: for every item that follows, state its recorded IC50.
Target: Gastrin receptor (gastric glands) (Cavia porcellus, UniProt H0VZC5)
Construct: The washed guinea pig gastric glands prepared as above were resuspended; from tissue; host or cells: guinea pig gastric mucosal glands (male Hartley)
Sequence (H0VZC5 1-426): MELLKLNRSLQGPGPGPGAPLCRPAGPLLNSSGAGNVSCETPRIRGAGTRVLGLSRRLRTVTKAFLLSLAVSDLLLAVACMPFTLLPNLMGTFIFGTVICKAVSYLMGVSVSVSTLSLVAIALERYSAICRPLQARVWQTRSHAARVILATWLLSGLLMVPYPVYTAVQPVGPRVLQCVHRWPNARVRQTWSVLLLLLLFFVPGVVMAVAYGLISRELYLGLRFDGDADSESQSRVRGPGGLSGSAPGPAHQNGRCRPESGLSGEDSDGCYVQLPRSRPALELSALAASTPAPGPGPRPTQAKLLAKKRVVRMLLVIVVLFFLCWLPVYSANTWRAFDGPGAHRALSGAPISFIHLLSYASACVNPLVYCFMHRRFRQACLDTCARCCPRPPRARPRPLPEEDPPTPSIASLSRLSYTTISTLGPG
Test: Gastrin Receptor Binding in Guinea Pig Gastric Glands
Set-up: species or system guinea pig (male Hartley)
Settings: IC50 ^125 I-Gastrin Gastric Glands, 25° C., 30 minutes
The reply should contain only the number, in µM.

For the compound O=C(NCC1CNc2ccccc2C(c2ccccc2F)=N1)c1ccsc1 (racemic) , report IC50.
80

For the compound O=C(NC1N=C(c2ccccc2)c2ccccc2NC1=O)c1ccc(F)cc1 (racemic) , report IC50.
9.4

For the compound O=C(NC1N=C(c2ccccc2)c2ccccc2NC1=O)C1Cc2ccccc2N1 (centres unmarked) , report IC50.
110

For the compound CN1C(=O)C(NC(=O)c2ccsc2)N=C(c2ccccc2F)c2ccccc21 (centres unmarked) , report IC50.
11

For the compound CCOC(=O)CN1C(=O)C(NC(=O)c2ccc(Cl)cc2)N=C(c2ccccc2F)c2ccccc21 (racemic) , report IC50.
0.69

For the compound O=C(O)CN1C(=O)C(NC(=O)c2ccc(Cl)cc2)N=C(c2ccccc2F)c2ccccc21 (racemic) , report IC50.
8.2

For the compound CN1C(=O)C(NC(=O)Nc2ccccc2[N+](=O)[O-])N=C(c2ccccc2)c2ccccc21 (centres unmarked) , report IC50.
0.5
